Molecular target: T1, human C1s (human, UniProt P09871 16-688)
T1 construct: also called hC1s; serum-derived human C1s (CompTech)
T1 sequence: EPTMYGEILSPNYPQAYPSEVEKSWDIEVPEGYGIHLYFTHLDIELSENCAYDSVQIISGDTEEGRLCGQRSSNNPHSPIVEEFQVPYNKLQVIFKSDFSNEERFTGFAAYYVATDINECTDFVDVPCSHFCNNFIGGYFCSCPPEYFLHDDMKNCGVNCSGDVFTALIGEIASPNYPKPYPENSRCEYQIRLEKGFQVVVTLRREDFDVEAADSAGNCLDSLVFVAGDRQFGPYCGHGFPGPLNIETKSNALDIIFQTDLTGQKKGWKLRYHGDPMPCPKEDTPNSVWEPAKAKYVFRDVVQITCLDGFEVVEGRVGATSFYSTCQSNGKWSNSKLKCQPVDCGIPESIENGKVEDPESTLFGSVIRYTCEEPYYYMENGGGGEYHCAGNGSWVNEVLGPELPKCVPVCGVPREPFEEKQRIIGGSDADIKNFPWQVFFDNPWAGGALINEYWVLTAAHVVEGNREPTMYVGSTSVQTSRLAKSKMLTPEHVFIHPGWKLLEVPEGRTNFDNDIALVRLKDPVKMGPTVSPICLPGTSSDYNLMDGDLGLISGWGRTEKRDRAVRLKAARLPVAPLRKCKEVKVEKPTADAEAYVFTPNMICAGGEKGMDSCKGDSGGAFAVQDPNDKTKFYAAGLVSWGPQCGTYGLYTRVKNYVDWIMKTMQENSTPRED
Experiment: SPR; KD pH 5.8 1.2 mM Ca / KD pH 7.4 1.2 mM Ca
Metric: KD 5(+)/7(+)
Answer with a bare number; do not write a unit.

C1_IPN92H0038-SG4GK/IPN93L0029-SK1 (antibody, human IgG4 S228P, kappa, name in Kabat numbering, V domains shown, also called IPN92H0038/IPN93L0029) VH: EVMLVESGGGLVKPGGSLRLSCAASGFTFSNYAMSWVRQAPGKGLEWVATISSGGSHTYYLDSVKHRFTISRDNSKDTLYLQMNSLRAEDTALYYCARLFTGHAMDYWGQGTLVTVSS VL: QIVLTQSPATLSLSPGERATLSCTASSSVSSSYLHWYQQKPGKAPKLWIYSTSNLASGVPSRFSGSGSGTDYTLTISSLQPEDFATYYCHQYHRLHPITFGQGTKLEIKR : 3.4
C1_IPN92H0026-SG4GK/IPN93L0030-SK1 (antibody, human IgG4 S228P, kappa, name in Kabat numbering, V domains shown, also called IPN92H0026/IPN93L0030) VH: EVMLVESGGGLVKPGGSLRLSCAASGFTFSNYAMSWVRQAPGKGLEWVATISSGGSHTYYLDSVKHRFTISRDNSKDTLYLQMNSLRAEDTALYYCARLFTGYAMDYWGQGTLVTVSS VL: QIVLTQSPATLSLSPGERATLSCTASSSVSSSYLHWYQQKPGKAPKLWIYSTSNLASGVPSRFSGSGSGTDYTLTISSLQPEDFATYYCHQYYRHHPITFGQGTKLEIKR : 1.1

From here, focus on the item given below.
Data request, read-out KD 5(+)/7(+), for C1_IPN92H0033-SG4GK/IPN93L0030-SK1 (antibody, human IgG4 S228P, kappa, name in Kabat numbering, V domains shown, also called IPN92H0033/IPN93L0030) VH: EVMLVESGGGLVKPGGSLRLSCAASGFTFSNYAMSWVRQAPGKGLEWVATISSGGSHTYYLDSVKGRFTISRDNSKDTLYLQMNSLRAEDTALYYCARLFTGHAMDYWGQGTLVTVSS VL: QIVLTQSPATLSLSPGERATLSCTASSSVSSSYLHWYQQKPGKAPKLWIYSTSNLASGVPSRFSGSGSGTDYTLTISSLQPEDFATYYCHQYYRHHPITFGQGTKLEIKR
3.7

Values were extracted from patent US20210032365A1.
